- Test system: MDA-MB-231
- Assay procedure: Cytotoxicity against human MDA-MB-231 cells assessed as reduction in cell viability after 48 hrs by MTT assay
- Format: functional, cell-based
- Reported conditions: Homo sapiens, MDA-MB-231, 48 h
Sorting guide: entries reporting IC50 beneath 5 µM go in the true (1) pile, the rest go in the false (0) pile.

Smi | Assay system | Discrete label
COc1cc(NC(=O)Nc2cccc3ccccc23)c2cc1Oc1ccc(cc1)C[C@H]1c3cc(c(OC)cc3CCN1C)Oc1c(OC)c(OC)cc3c1[C@H](C2)N(C)CC3 | MDA-MB-231 | true (1)
COc1cc(NC(=O)NCCc2ccccc2)c2cc1Oc1ccc(cc1)C[C@H]1c3cc(c(OC)cc3CCN1C)Oc1c(OC)c(OC)cc3c1[C@H](C2)N(C)CC3 | MDA-MB-231 | false (0)
COc1cc(NC(=O)N2CCN(S(C)(=O)=O)C2=O)c2cc1Oc1ccc(cc1)C[C@H]1c3cc(c(OC)cc3CCN1C)Oc1c(OC)c(OC)cc3c1[C@H](C2)N(C)CC3 | MDA-MB-231 | true (1)
COc1cc(NC(=O)Nc2ccc(C(F)(F)F)cc2)c2cc1Oc1ccc(cc1)C[C@H]1c3cc(c(OC)cc3CCN1C)Oc1c(OC)c(OC)cc3c1[C@H](C2)N(C)CC3 | MDA-MB-231 | false (0)
CCCCNC(=O)Nc1cc(OC)c2cc1C[C@H]1c3c(cc(OC)c(OC)c3Oc3cc4c(cc3OC)CCN(C)[C@H]4Cc3ccc(cc3)O2)CCN1C | MDA-MB-231 | false (0)
COc1cc(NC(=O)NCc2ccccc2)c2cc1Oc1ccc(cc1)C[C@H]1c3cc(c(OC)cc3CCN1C)Oc1c(OC)c(OC)cc3c1[C@H](C2)N(C)CC3 | MDA-MB-231 | false (0)

###

- Assay procedure: Cytotoxicity against human WM9 cells assessed as reduction in cell viability after 48 hrs by MTT assay
- Type: functional, cell-based
- Reported conditions: Homo sapiens, WM9, 48 h
pIC50: −log10 of the molar value.

Smi | pIC50
COc1cc(NC(=O)Nc2ccc(F)cc2)c2cc1Oc1ccc(cc1)C[C@H]1c3cc(c(OC)cc3CCN1C)Oc1c(OC)c(OC)cc3c1[C@H](C2)N(C)CC3 | 5.38
COc1cc(NC(=O)N2CCOCC2)c2cc1Oc1ccc(cc1)C[C@H]1c3cc(c(OC)cc3CCN1C)Oc1c(OC)c(OC)cc3c1[C@H](C2)N(C)CC3 | 5.26
CCCCNC(=S)Nc1cc(OC)c2cc1C[C@H]1c3c(cc(OC)c(OC)c3Oc3cc4c(cc3OC)CCN(C)[C@H]4Cc3ccc(cc3)O2)CCN1C | 5.37
CNC(=O)Nc1cc(OC)c2cc1C[C@H]1c3c(cc(OC)c(OC)c3Oc3cc4c(cc3OC)CCN(C)[C@H]4Cc3ccc(cc3)O2)CCN1C | 5.51
COc1cc(NC(=O)NCc2ccccc2)c2cc1Oc1ccc(cc1)C[C@H]1c3cc(c(OC)cc3CCN1C)Oc1c(OC)c(OC)cc3c1[C@H](C2)N(C)CC3 | 5.21

###

- Tested on: PC-3
- Assay procedure: Cytotoxicity against human PC3 cells assessed as reduction in cell viability after 48 hrs by MTT assay
- Format: functional, cell-based
- Reported conditions: Homo sapiens, PC-3, 48 h
pIC50: −log10 of the molar value.
The entries below come with measured pIC50 values attached.
Endpoint: pIC50

Smi | Endpoint | Obs value
COc1cc(NC(=O)Nc2cccc(Cl)c2)c2cc1Oc1ccc(cc1)C[C@H]1c3cc(c(OC)cc3CCN1C)Oc1c(OC)c(OC)cc3c1[C@H](C2)N(C)CC3 | pIC50 | 5.34
COc1cc(NC(=O)Nc2ccc(C)cc2)c2cc1Oc1ccc(cc1)C[C@H]1c3cc(c(OC)cc3CCN1C)Oc1c(OC)c(OC)cc3c1[C@H](C2)N(C)CC3 | pIC50 | 5.41
COc1cc(NC(=S)Nc2ccc(F)cc2)c2cc1Oc1ccc(cc1)C[C@H]1c3cc(c(OC)cc3CCN1C)Oc1c(OC)c(OC)cc3c1[C@H](C2)N(C)CC3 | pIC50 | 6.19
CCNC(=O)Nc1cc(OC)c2cc1C[C@H]1c3c(cc(OC)c(OC)c3Oc3cc4c(cc3OC)CCN(C)[C@H]4Cc3ccc(cc3)O2)CCN1C | pIC50 | 6.01
COc1cc(NC(=O)NC2CCCCC2)c2cc1Oc1ccc(cc1)C[C@H]1c3cc(c(OC)cc3CCN1C)Oc1c(OC)c(OC)cc3c1[C@H](C2)N(C)CC3 | pIC50 | 5.42
COc1ccc2cc1Oc1ccc(cc1)C[C@H]1c3cc(c(OC)cc3CCN1C)Oc1c(OC)c(OC)cc3c1[C@H](C2)N(C)CC3 | pIC50 | 5.10
COc1cc(NC(=O)Nc2ccc(Cl)c(C(F)(F)F)c2)c2cc1Oc1ccc(cc1)C[C@H]1c3cc(c(OC)cc3CCN1C)Oc1c(OC)c(OC)cc3c1[C@H](C2)N(C)CC3 | pIC50 | 5.33
COc1cc(NC(=S)Nc2ccc(Cl)cc2)c2cc1Oc1ccc(cc1)C[C@H]1c3cc(c(OC)cc3CCN1C)Oc1c(OC)c(OC)cc3c1[C@H](C2)N(C)CC3 | pIC50 | 5.22
COc1cc(NC(=O)N2c3ccccc3Sc3ccccc32)c2cc1Oc1ccc(cc1)C[C@H]1c3cc(c(OC)cc3CCN1C)Oc1c(OC)c(OC)cc3c1[C@H](C2)N(C)CC3 | pIC50 | 5.53
C=C(C)C(=O)OCCNC(=O)Nc1cc(OC)c2cc1C[C@H]1c3c(cc(OC)c(OC)c3Oc3cc4c(cc3OC)CCN(C)[C@H]4Cc3ccc(cc3)O2)CCN1C | pIC50 | 5.11
COc1cc(NC(=O)N2CCN(S(C)(=O)=O)C2=O)c2cc1Oc1ccc(cc1)C[C@H]1c3cc(c(OC)cc3CCN1C)Oc1c(OC)c(OC)cc3c1[C@H](C2)N(C)CC3 | pIC50 | 5.66
COc1ccc(NC(=S)Nc2cc(OC)c3cc2C[C@H]2c4c(cc(OC)c(OC)c4Oc4cc5c(cc4OC)CCN(C)[C@H]5Cc4ccc(cc4)O3)CCN2C)cc1 | pIC50 | 5.28
